Catalogue of protein stability index values
B1: MFF (parent)
chain: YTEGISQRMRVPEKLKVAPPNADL

# Variants of: B1
# method-description: protein stability index of a GFP-peptide fusion (GPS, HEK-293T) (PSI 1-6); higher = more stable;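 further: lentivirally expressed fusions sorted by FACS into six bins by GFP to DsRed ratio, PSI derived from sequencing read proportions per bin multiplied by bin number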
# applied-conditions: c terminus: a fixed tail appended
Just the number, please, no unit attached.

# annotated cases, reported protein stability index shown
{"variant-id": "M9S", "protein stability index": 2.55}
{"variant-id": "L15T", "protein stability index": 2.71}
{"variant-id": "P12Y", "protein stability index": 2.58}
{"variant-id": "Q7M", "protein stability index": 2.59}
{"variant-id": "A22F", "protein stability index": 2.83}

Data point: `P12F` ; protein stability index = 1.88

Data point: `T2S` ; protein stability index = 3.81

Data point: `E13F` ; protein stability index = 2.35

Data point: `G4K` ; protein stability index = 3.63

Data point: `N21A` ; protein stability index = 3.21
